Where these numbers come from: patent US20160311919A1

biological target: GPNMB-V5His (recombinant human GPNMB extracellular domain with C-terminal V5-His tag) (human) (UniProt Q14956); test: SPR (Biacore), mAb on protein A, GPNMB 880 nM
Give measured koff for each item. Keep answers brief.
Give bare numbers, in s⁻¹.

Mab1.2.2 (antibody, human IgG2, V domains shown) VH: ITLKESGPTLVKPTQTLTLTCTFSGFSLSAGGVGVGWIRQPPGKALEWLALIYWNDDKRYSPSLRSRLTITKDTSKNQVVLTITNMDPVDTATYYCAHSHYDYDWGSYFDYWGQGTLVTVSS VL: DIVMTQTPLSLPVTPGEPASISCRSSQSLLDSDDGNTYLDWYLQKPGQSPQLLIYTLSYRASGVPDRFSGSGSGTDFTLNISRVEAEDVGVYYCMQRIEFPITFGQGTRLEIKR : 0.00089

Please look at the following binder next.
Req: Check the records and state koff for 1.7.3 (antibody, V domains shown) VH: QVQLQESGPGLVKPSQTLSLTCTVSGGSISSANYYWTWIRQHPGKGLEWIGYIYYSGSTYCNPSLKSRVIISVDTSKNQFSLKLSSVTAADTAVYYCARGYNWNYFDYWGQGTLVTVSS VL: DIVMTQSPATLSVSPGERATLSCRASQSVSSNLAWYQERPGQAPRLLIYGASTRATGIPARFSGSGSGTEFTLTISSLQSEDFAVYYCQQYNKWPPWTFGQGTKVEIER
Resp: 0.00117
